Target: Fructose-bisphosphate aldolase (Mycobacterium tuberculosis (strain ATCC 25618 / H37Rv))
Assay: Mtb FBA enzyme inhibitors, primary screen, biochemical, fluorescence, strain H37Rv (AID 588726);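 note: 0% = vehicle and 100% = reference inhibitor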
Details: purified M. tuberculosis FBA, fluorescence read-out, at 1 µM
About 8,200 (2.3%) of roughly 360,000 compounds were called active. Cut-off read from the data, not from the text of the source: active = inhibition above about 27%; inactive = the rest. Shown is part of a subset that was picked to be rich in actives.
Write down one outcome, taken from 1.0 for active, 0.0 for inactive

// known answers, use as guide
[[record]]
molecule = "CCCCCN1CC(O)=C(c2ccccc2)C1=N"
answer_label = 0.0

[[record]]
molecule = "CCN(CC)c1ccc(NC(=O)C2CCC(CNc3c(N4CCCC4)c(=O)c3=O)CC2)c(C)c1 (configuration not stated)"
answer_label = 0.0

[[record]]
molecule = "CC1(C)Oc2ccc3ccc(=O)oc3c2/C(=C/NCCO)C1=O"
answer_label = 0.0


Consider the additional molecule presented here.
Query string: Record lookup: outcome of this test for Cc1cc(-c2cccs2)nc(-n2cccc2)n1 ?
Result string: 0.0

* * *

The following compounds are listed with their measured inhibition values.
Biological target: Fructose-bisphosphate aldolase (Mycobacterium tuberculosis (strain ATCC 25618 / H37Rv)) (UniProt P9WQA3)
Sequence (P9WQA3 whole entry, looked up): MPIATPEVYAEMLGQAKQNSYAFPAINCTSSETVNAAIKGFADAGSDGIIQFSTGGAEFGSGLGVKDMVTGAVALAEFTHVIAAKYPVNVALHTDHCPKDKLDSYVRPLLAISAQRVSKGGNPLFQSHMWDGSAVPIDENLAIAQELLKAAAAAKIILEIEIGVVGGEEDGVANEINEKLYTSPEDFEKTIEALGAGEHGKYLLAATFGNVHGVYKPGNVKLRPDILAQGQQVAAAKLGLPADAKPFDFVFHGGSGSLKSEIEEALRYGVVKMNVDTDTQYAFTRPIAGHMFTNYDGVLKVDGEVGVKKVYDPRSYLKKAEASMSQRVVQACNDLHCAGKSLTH
Test: Mtb FBA enzyme inhibitors, primary screen, biochemical, fluorescence, strain H37Rv (AID 588726);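 note: 0% = vehicle and 100% = reference inhibitor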
Conditions: purified M. tuberculosis FBA, fluorescence read-out, at 1 µM, stronger effect = higher value
In all, about 360,000 compounds went through this assay and about 8,200 (2.3%) were called active. The sample as a whole holds a higher share of actives than the screen did.
Quick reminder: number only, in %, skip the unit.

Consider the worked cases shown below.
[[record]]
compound = "CC1(C)Cc2c(sc3nc(SCC(=O)NCc4ccccc4)n(-c4ccccc4)c(=O)c23)CS1"
unit_descriptor = "%"
assay_value = 1.67

[[record]]
compound = "N#C/C(=C/c1ccc(N2CCCCC2)o1)C(=O)NCCc1c[nH]c2ccccc12"
unit_descriptor = "%"
assay_value = -32.6

[[record]]
compound = "CCCCOC(=O)Nc1sc2nc(C)cc(C)c2c1-n1cccc1"
unit_descriptor = "%"
assay_value = 5.62

[[record]]
compound = "O=C(CNC(=O)OCc1ccccc1)NC1CCCCNC1=O (stereo unspecified)"
unit_descriptor = "%"
assay_value = 0.55

[[record]]
compound = "COC(=O)C1=C(N)Oc2cc(C)[nH]c(=O)c2C1c1ccc(Cl)cc1 (stereo unspecified)"
unit_descriptor = "%"
assay_value = -1.06


Query string: Let me know recorded inhibition for Cn1ncc(N2CCN(S(=O)(=O)c3ccc(Br)cc3)CC2)c(Cl)c1=O , thanks.
Result string: -2.21

Query string: Let me know recorded inhibition for Nc1ccccc1C(=O)NC1CCCCNC1=O (stereo unspecified) , thanks.
Result string: 68.5

Query string: Let me know recorded inhibition for O=C1CC(Cc2ccc(Cl)cc2)C(=O)N1c1cc(Cl)ccn1 (stereo unspecified) , thanks.
Result string: -3.99

Query string: Let me know recorded inhibition for CC(C)Cc1ccc(-c2cc3nc(NCc4cccc(Cl)c4)ccn3n2)cc1 , thanks.
Result string: 14.9

Query string: Let me know recorded inhibition for CC1(C)O[C@@H]2[C@H](O1)[C@@H](CO)O[C@H]2n1c(N2CCCCC2)nc2c(N)ncnc21 , thanks.
Result string: 0.56

Query string: Let me know recorded inhibition for CCc1ccc(N2CC(C(=O)NC3=NCCS3)CC2=O)cc1 (stereo unspecified) , thanks.
Result string: 4.59

* * *

Molecular target: Fructose-bisphosphate aldolase (Mycobacterium tuberculosis (strain ATCC 25618 / H37Rv)) (UniProt P9WQA3)
Assay: Mtb FBA enzyme inhibitors, primary screen, biochemical, fluorescence, strain H37Rv (AID 588726);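 note: 0% = vehicle and 100% = reference inhibitor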
Details: purified M. tuberculosis FBA, fluorescence read-out, at 1 µM
The campaign covered roughly 360,000 compounds. About 8,200 (2.3%) were called active. Cut-off read from the data, not from the text of the source: active = inhibition above about 27%; inactive = the rest. Shown is part of a subset that was picked to be rich in actives.
Write down one outcome, taken from true = active, false = inactive

[[record]]
compound = "CC1(C)OC(=O)C(=CNC(CO)C(=O)O)C(=O)O1 (configuration not stated)"
answer_label = "false"

[[record]]
compound = "CCCN(C(=O)COC(=O)CNS(=O)(=O)c1ccc(NC(C)=O)cc1)C1CCS(=O)(=O)C1 (configuration not stated)"
answer_label = "false"

[[record]]
compound = "COC(=O)c1ccc2nc(-c3cccc(Br)c3)c(Cc3ccc(OC)cc3C)n2c1"
answer_label = "false"


Query string: Record lookup: outcome of this test for CCCCNc1c(-c2cccc(Sc3ccc(OC)cc3)c2)nc2ccccn12 ?
Result string: true

Query string: Record lookup: outcome of this test for Cc1ccc(S(=O)(=O)N2CCC(C)CC2)cc1C(=O)NCc1ccccn1 ?
Result string: false

Query string: Record lookup: outcome of this test for Cc1cc(C)cc(NC(=O)C(OC(=O)c2ccc(O)cc2)c2ccccc2)c1 (configuration not stated) ?
Result string: false

* * *

Target: Fructose-bisphosphate aldolase (Mycobacterium tuberculosis (strain ATCC 25618 / H37Rv)) (UniProt P9WQA3)
Experiment: Mtb FBA enzyme inhibitors, primary screen, biochemical, fluorescence, strain H37Rv (AID 588726);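 note: 0% = vehicle and 100% = reference inhibitor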
Settings: purified M. tuberculosis FBA, fluorescence read-out, at 1 µM, stronger effect = higher value
Out of some 360,000 compounds screened, about 8,200 (2.3%) were called active. The list comes from a sample in which actives are over-represented; it also holds close analogues and randomly drawn compounds.
Reported metric: inhibition (%)
Quick reminder: number only, in %, skip the unit.

[[record]]
molecule = "Cc1cc(C(=O)N2CCC(C(=O)O)CC2)c(C(F)(F)F)o1"
unit_descriptor = "%"
assay_value = -0.52

[[record]]
molecule = "O=C(Cn1cnc([N+](=O)[O-])n1)NCCc1ccccc1"
unit_descriptor = "%"
assay_value = 0.01

[[record]]
molecule = "Cc1nc2ccc(NC(=O)C3CCCCC3)cc2s1"
unit_descriptor = "%"
assay_value = 2.5

[[record]]
molecule = "O=C1OCC2=C1C(c1ccccc1)CC(=O)N2c1cccc(F)c1 (stereo unspecified)"
unit_descriptor = "%"
assay_value = -3.03

[[record]]
molecule = "COc1ccc(-n2c(C)cc(C(=O)CN3C(=O)NC4(CCc5ccccc54)C3=O)c2C)cc1 (stereo unspecified)"
unit_descriptor = "%"
assay_value = 1

[[record]]
molecule = "COc1ccc(C(C)=O)cc1CSc1nc2nc(C)cc(C)n2n1"
unit_descriptor = "%"
assay_value = -0.02

[[record]]
molecule = "COc1ccc(C(=O)N(CCN2CCOCC2)CC(=O)NC2CCCC2)cc1OC"
unit_descriptor = "%"
assay_value = -0.65

[[record]]
molecule = "CS(=O)(=O)N(CC(O)Cn1c2ccccc2c2ccccc21)c1cccc2ccccc12 (stereo unspecified)"
unit_descriptor = "%"
assay_value = -2.35


Query string: Let me know recorded inhibition for CCOC(=O)N1CCN(C(=O)c2n[nH]c(=O)c3ccccc23)CC1 , thanks.
Result string: -0.89

Query string: Let me know recorded inhibition for CCOC(=O)CCCCCC(=O)Nc1ccc2c(c1)CC(=O)N([C@@H](C)CO)C[C@H](C)[C@@H](CN(C)Cc1ccccc1)O2 , thanks.
Result string: 1.41

Query string: Let me know recorded inhibition for O=C(Nc1ccc2c(c1)OCCO2)C1CCCC1 , thanks.
Result string: -2.43

Query string: Let me know recorded inhibition for C=CCc1cccc2cc(C(=O)N3CCN(C(=O)OCC)CC3)c(=O)oc12 , thanks.
Result string: 1.44

Query string: Let me know recorded inhibition for CCn1c(CSc2nc(C)cc(C)n2)nnc1SCC(N)=O , thanks.
Result string: -3.73

Query string: Let me know recorded inhibition for CN1C(=O)c2ccc(NC(=O)c3c(F)c(F)c(F)c(F)c3F)cc2C1=O , thanks.
Result string: 37.5

Query string: Let me know recorded inhibition for CC(=O)Nc1ccc(S(=O)(=O)N2CCC(C(=O)N[C@@H](Cc3ccccc3)C(=O)O)CC2)cc1 , thanks.
Result string: 7.63

Query string: Let me know recorded inhibition for COc1ccc2oc(=O)c(C(=O)NCc3ccccn3)cc2c1 , thanks.
Result string: 82.7

Query string: Let me know recorded inhibition for CCO[C@@H]1OC(C(=O)NC2CC2)=C[C@H](C)[C@H]1CCCO , thanks.
Result string: -0.48

* * *

Target: Fructose-bisphosphate aldolase (Mycobacterium tuberculosis (strain ATCC 25618 / H37Rv)) (UniProt P9WQA3)
Assay: Mtb FBA enzyme inhibitors, primary screen, biochemical, fluorescence, strain H37Rv (AID 588726);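 note: 0% = vehicle and 100% = reference inhibitor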
Conditions: purified M. tuberculosis FBA, fluorescence read-out, at 1 µM
In all, about 360,000 compounds went through this assay and about 8,200 (2.3%) were called active. Rule as the data show it: active = inhibition above about 27%; inactive = the rest. The full list was thinned out, with actives kept by preference.
Write down one outcome, taken from label 1 (active), label 0 (inactive)

// known answers, use as guide
[[record]]
molecule = "Cc1ccccc1CCN(CC(=O)NC1CCCCC1)C(=O)c1csnn1"
answer_label = "label 0"

[[record]]
molecule = "COC[C@@H]1NS(=O)(=O)c2ccc(Br)cc2O[C@H]1c1ccccc1"
answer_label = "label 0"

[[record]]
molecule = "COc1ccccc1N(CC(=O)NC1CCCC1)C(=O)C1(C)CC(=O)N=C2C=CC(C)=CN21 (stereo unspecified)"
answer_label = "label 1"

[[record]]
molecule = "Cc1ccc(N(CC(=O)NC2CCCCC2)C(=O)CCCC(=O)Nc2ccccn2)c(C)c1"
answer_label = "label 0"

[[record]]
molecule = "CN(C)C(=O)N1CCNCC1"
answer_label = "label 0"


Consider the additional molecule presented here.
Query string: Record lookup: outcome of this test for CN(CCc1ccccn1)C(=O)c1ccc(OC2CCN(Cc3ccccn3)CC2)cc1 ?
Result string: label 0
